Entry source: ChEMBL document CHEMBL1629421

I'd appreciate it if you could supply inhibition of growth at 25 µg/mL values for the items below.
test system: MCF7; test: Growth inhibition of human MCF7 cells at 25 ug/ml after 24 hrs by MTT colorimetric assay; assay type: functional; settings: MCF7, 24 h, read-out: GI
One number for each entry, in %.

// solved cases for inhibition of growth at 25 µg/mL follow
* O=C1OC[C@H](Cc2ccc3c(c2)OCO3)[C@H]1[C@H](O)c1ccc([N+](=O)[O-])cc1 | 24.6
* COc1cccc(C(O)[C@H]2C(=O)OC[C@@H]2Cc2ccc3c(c2)OCO3)c1 (mixture of isomers) | -3.8
* COc1ccc(C(O)[C@H]2C(=O)OC[C@@H]2Cc2ccc3c(c2)OCO3)cc1 (mixture of isomers) | 42.7

For every record below, what is its inhibition of growth at 25 µg/mL?
1. O=C1OC[C@H](Cc2ccc3c(c2)OCO3)[C@H]1[C@H](O)c1ccccc1Cl
2. O=C1OC[C@H](Cc2ccc3c(c2)OCO3)[C@H]1C(O)c1ccc([N+](=O)[O-])cc1 (mixture of isomers)
3. CC/C(=C(\c1ccccc1)c1ccc(OCCN(C)C)cc1)c1ccccc1
4. COc1cccc2c1C(=O)c1c(O)c3c(c(O)c1C2=O)C[C@@](O)(C(=O)CO)C[C@@H]3O[C@H]1C[C@H](N)[C@H](O)[C@H](C)O1

1. 15.8
2. 7.2
3. 65.7
4. 54.6
